- Test details: Cytotoxicity against MDCK cells assessed as reduction in cell viability measured after 72 hrs by alamar blue assay
- Type: cell-based, Canis lupus familiaris
- Experimental context: dog
Quantity kind: CC50 at 72 h

Use the examples below as a reference point.
molecule=CCn1cc(-c2c[nH]c3ncc(F)cc23)nc(N[C@H]2C3CCC(CC3)[C@@H]2C(=O)O)c1=O result="> 100 µM"
molecule="O=C(O)[C@H]1C2CCC(CC2)[C@@H]1Nc1nc(-c2c[nH]c3ncc(F)cc23)ncc1F [PIMODIVIR]" result="> 100 µM"

--- query ---
The molecule listed as NC(=O)c1ncn([C@@H]2O[C@H](CO)[C@@H](O)[C@H]2O)n1 [RIBAVIRIN] shows CC50 at 72 h equal to > 100 µM

Provenance of the data: ChEMBL document CHEMBL4390701
